details: rat, in vivo, iv, 2 mg/kg
Bridge positions count the residues as written; N and C are the ends. Square brackets hold non-standard residues; d marks the D form. Peptide text beside a SMILES is read from it. * marks the point of attachment. Piperazin2one(3S-Bu,6R-CO) = CCCC[C@@H]1NC[C@H](C(=O)*)NC1=O; X1 = N=C(N)NCCC[C@H]1C(=O)N[C@@H](C(N)=O)CN1*; Nle = CCCC[C@H](N)C(=O)O
Result type: Vd (L/kg)
The reply should be a number in L/kg, with the unit left off.

response.value for CCCC[C@@H]1NC[C@H](C(=O)N[C@H]2CSSC[C@@H](C(=O)N[C@@H](Cc3ccc(O)cc3)C(=O)N3C[C@H](C(N)=O)NC(=O)[C@@H]3CCCNC(=N)N)NC(=O)[C@H](C)NC(=O)[C@H]([C@@H](C)CC)NC(=O)[C@H](CCCNC(=N)N)NC(=O)[C@H](CC(=O)O)NC(=O)[C@H](CCCC)NC(=O)[C@H](CCCNC(=N)N)NC(=O)CNC(=O)CNC(=O)[C@H](Cc3ccccc3)NC(=O)[C@H](C)NC2=O)NC1=O [1-69] ({Piperazin2one(3S-Bu,6R-CO)}-CAFGGR[Nle]DRIACY-X1; disulfide 1-12) (field: Vd) = 0.8
